- System under test: Human 5-lipoxygenase (Homo sapiens, UniProt P09917)
- Construct: purchased Cayman 60402; host or cells: insect cells
- Sequence (P09917 whole entry): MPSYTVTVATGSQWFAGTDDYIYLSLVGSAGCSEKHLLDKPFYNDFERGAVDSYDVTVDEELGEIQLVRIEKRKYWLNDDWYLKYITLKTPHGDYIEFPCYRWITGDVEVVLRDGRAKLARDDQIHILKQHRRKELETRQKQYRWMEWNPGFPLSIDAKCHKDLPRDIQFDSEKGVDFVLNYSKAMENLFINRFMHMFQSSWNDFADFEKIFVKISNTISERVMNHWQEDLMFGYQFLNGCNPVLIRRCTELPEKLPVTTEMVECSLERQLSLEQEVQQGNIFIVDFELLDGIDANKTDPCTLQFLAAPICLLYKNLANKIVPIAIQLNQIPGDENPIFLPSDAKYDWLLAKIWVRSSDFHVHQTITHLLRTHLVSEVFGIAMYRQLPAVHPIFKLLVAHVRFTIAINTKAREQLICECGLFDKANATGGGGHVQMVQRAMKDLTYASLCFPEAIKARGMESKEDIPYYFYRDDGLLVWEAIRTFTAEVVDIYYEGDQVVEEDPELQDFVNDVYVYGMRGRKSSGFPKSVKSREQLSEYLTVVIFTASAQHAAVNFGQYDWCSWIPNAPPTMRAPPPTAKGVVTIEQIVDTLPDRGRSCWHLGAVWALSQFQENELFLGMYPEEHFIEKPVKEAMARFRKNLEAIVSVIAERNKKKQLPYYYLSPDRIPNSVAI
- Test protocol: Activity of compounds against 5-LO enzyme (LTB4 measurement and/or fluorescence method)
- Type: biochemical
- Measurement setup: 5-LO, single concentration of 10 uM in duplicate
Measured property: inhibition at 10 µM

# example entries with known answers
CCc1nc2ccccn2c1C(=O)NCc1ccc(N2CCC(COc3ccc(F)cc3)CC2)cc1 = > 69%
CCc1nc2cc(Cl)ccn2c1C(=O)NCc1ccc(N2CCC(COC3CCCC3)CC2)cc1 = 40 to 69%
CCc1nc2cc(Cl)ccn2c1C(=O)NCc1ccc(-c2ccc(C(F)(F)F)cc2)cc1 = < 40%

So, CCc1nc2ccc(Cl)cn2c1C(=O)NCc1ccc(N2CCCCC2C)cc1 (centres unmarked) ? Its inhibition at 10 µM was < 40%

So, CCc1nc2cc(Cl)ccn2c1C(=O)NCc1ccc(CC2CCOCC2)cc1 ? Its inhibition at 10 µM was < 40%

So, CCc1nc2cc(Cl)ccn2c1C(=O)NCc1nc2cc(-c3ccc(OC(F)(F)F)cc3)ccc2o1 ? Its inhibition at 10 µM was < 40%

So, CCc1nc2cc(Cl)ccn2c1C(=O)NCc1ccc(N2CCCCCC2)cc1 ? Its inhibition at 10 µM was > 69%

So, CCc1nc2ccc(Cl)cn2c1C(=O)NCc1cc2cc(Cl)ccc2o1 ? Its inhibition at 10 µM was < 40%

* * *

- System under test: Human 5-lipoxygenase (Homo sapiens, UniProt P09917)
- Construct: purchased Cayman 60402; host or cells: insect cells
- Test protocol: Activity of compounds against 5-LO enzyme (LTB4 measurement and/or fluorescence method)
- Assay type: biochemical
- Measurement setup: 5-LO, single concentration of 10 uM in duplicate
Measured property: inhibition at 10 µM

# example entries with known answers
CCc1nc2cc(C(F)(F)F)ccn2c1C(=O)NCc1ccc(N2CCOCC2)cc1 = < 40%
CCc1nc2cc(Cl)ccn2c1C(=O)NCc1ccc(N2CC(C)OC(C)C2)cc1 (stereo not shown) = < 40%
CCc1nc2c(-c3ccncc3)cccn2c1C(=O)NCc1ccc(N2CCN(c3ccc(F)cc3)CC2)cc1 = < 40%
Cc1nc2ccccn2c1C(=O)NCCOc1ccccc1 = < 40%

Please turn your attention to the following entry.
So, CCc1nc2ccc(Cl)cn2c1CNCc1ccc(F)cc1 ? Its inhibition at 10 µM was < 40%

* * *

Listed here are compounds together with their documented melting point.
Just the number please, in °C, no unit attached.

# example entries with known answers
CCc1nc2ccc(Cl)cn2c1C(=O)NCC(C)C [compound 239] = 162.2
CCc1nc2ccc(Cl)cn2c1C(=O)NCc1ccc(N2CCC(c3ccccc3)CC2)cc1 [compound 210] = 138.2
CCc1nc2ccccn2c1C(=O)NCc1ccc(N2CCN(c3ccc(F)cc3)CC2)cc1 [compound 227] = 189.2
CCc1nc2ccc(OC)cn2c1C(=O)NCc1ccc(N2CCN(c3ccc(F)cc3)CC2)cc1 [compound 271] = 173.8
CCc1nc2cc(Cl)ccn2c1C(=O)NCc1ccc(N2CCC(COC)CC2)cc1 [compound 248] = 172.5

So, CCc1nc2ncccn2c1CNc1ccc(N2CCN(c3ccc(F)cc3)CC2)cc1 [compound 395] ? Its melting point was 210.7
